Measured enrichment ratio accompanies every entry in the list below.
B1: PhoQ; a variant is named by its letters at X, in order, P23837 (parent)
chain: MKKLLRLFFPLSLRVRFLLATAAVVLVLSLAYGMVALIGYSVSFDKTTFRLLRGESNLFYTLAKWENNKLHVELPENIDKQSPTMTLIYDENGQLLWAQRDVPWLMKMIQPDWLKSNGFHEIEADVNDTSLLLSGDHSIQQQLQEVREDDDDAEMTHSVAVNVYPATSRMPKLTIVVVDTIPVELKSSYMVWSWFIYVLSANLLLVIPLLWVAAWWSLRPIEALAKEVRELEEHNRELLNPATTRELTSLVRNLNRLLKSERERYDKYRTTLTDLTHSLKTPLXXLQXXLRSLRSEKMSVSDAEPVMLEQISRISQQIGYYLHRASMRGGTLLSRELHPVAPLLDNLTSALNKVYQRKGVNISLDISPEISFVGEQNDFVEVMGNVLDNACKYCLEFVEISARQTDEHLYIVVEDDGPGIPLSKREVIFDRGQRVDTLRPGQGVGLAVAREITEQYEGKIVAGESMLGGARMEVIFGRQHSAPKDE

variants of: B1; test: enrichment ratio after two sorts for PhoP signalling (ratio (wild type AVST 3.29)); higher = more functional; conditions: with PhoP (E. coli)
Whole data set: some 140,000 sequences, median “enrichment ratio after two sorts for PhoP signalling” near 0, cut for the highest 2% near 11. The entries come from a sample that favours the highest values as a whole.

(Q) Please list enrichment ratio recorded for the variant WIAV
(A) ≤ 0.25

--- query ---
(Q) Report enrichment ratio for CTFI
(A) 9.39

Source: a collection of fitness landscapes (doi:10.1126/science.1257360)
